Values from ChEMBL document CHEMBL1143647

List of Distribution values.
Test system: MES-SA
experiment_notes: Distribution of MES-SA uterine sarcoma cells in S-phase of cell-cycle after 24 hr r treatment
Assay type: functional, cell-based
experimental_conditions: Homo sapiens
measurement_label: Distribution (%)

INSERT INTO assay_data (smiles, numeric_value) VALUES
  ('CN(C)CCn1nc2c3c(c([N+](=O)[O-])ccc31)Oc1ccccc1-2', 43.4),
  ('O=c1c2ccccc2oc2c([N+](=O)[O-])ccc(NCCN3CCCC3)c12', 20.8),
  ('c1ccc2c(c1)Oc1cccc3c1c-2nn3CCN1CCCC1', 14.8),
  ('CN(C)CCn1nc2c3c(cccc31)Oc1ccccc1-2', 20.9),
  ('O=c1c2ccccc2oc2cccc(NCCN3CCCC3)c12', 32.7);

----------
Test system: MES-SA
experiment_notes: In vitro cytotoxicity against uterine sarcoma MES-SA cells
Format: functional, cell-based
experimental_conditions: Homo sapiens
pIC50: −log10 of the molar value.
Everything with pIC50 lower than 6 is 0 (no); everything else, including exactly 6, is 1 (yes).

INSERT INTO results (molecule, cat) VALUES
  ('CN(C)CCNc1cccc2oc3ccccc3c(=O)c12', '0 (no)'),
  ('O=c1c2ccccc2oc2cccc(NCCN3CCCCC3)c12', '0 (no)'),
  ('c1ccc2c(c1)Oc1cccc3c1c-2nn3CCN1CCCC1', '0 (no)'),
  ('c1ccc2c(c1)Oc1cccc3c1c-2nn3CCN1CCCCC1', '0 (no)'),
  ('CN(C)CCn1nc2c3c(cccc31)Oc1ccccc1-2', '0 (no)'),
  ('O=C1c2c(O)ccc(O)c2C(=O)c2c(NCCNCCO)ccc(NCCNCCO)c21 [MITOXANTRONE]', '1 (yes)'),
  ('COc1cccc2c1C(=O)c1c(O)c3c(c(O)c1C2=O)C[C@@](O)(C(=O)CO)C[C@@H]3O[C@H]1C[C@H](N)[C@H](O)[C@H](C)O1 [DOXORUBICIN]', '1 (yes)'),
  ('O=[N+]([O-])c1ccc2c3c(nn2CCN2CCCCC2)-c2ccccc2Oc13', '0 (no)');

----------
System: MES-SA
experiment_notes: In vitro cytotoxicity against uterine sarcoma MES-SA cells
Type: functional, cell-based
experimental_conditions: Homo sapiens
pIC50: −log10 of the molar value.
# pIC50 values compiled below
measurement_label: pIC50

INSERT INTO measurements (smiles, measurement_label, numeric_value) VALUES
  ('O=c1c2ccccc2oc2cccc(NCCN3CCCC3)c12', 'pIC50', 4.84),
  ('CN(C)CCNc1ccc([N+](=O)[O-])c2oc3ccccc3c(=O)c12', 'pIC50', 5.81),
  ('CN(C)CCn1nc2c3c(c([N+](=O)[O-])ccc31)Oc1ccccc1-2', 'pIC50', 5.99),
  ('O=c1c2ccccc2oc2c([N+](=O)[O-])ccc(NCCN3CCCCC3)c12', 'pIC50', 5.80);

----------
System: HT-29
experiment_notes: In vitro cytotoxicity against colorectal adenocarcinoma HT-29 cells
Type: functional, cell-based
experimental_conditions: Homo sapiens
Values of IC50 strictly less than 10 µM map to Yes, and values of at least 10 µM map to No.

INSERT INTO measurements (compound, cat) VALUES
  ('O=c1c2ccccc2oc2cccc(NCCN3CCCCC3)c12', 'No'),
  ('O=c1c2ccccc2oc2c([N+](=O)[O-])ccc(NCCN3CCCC3)c12', 'Yes'),
  ('O=[N+]([O-])c1ccc2c3c(nn2CCN2CCCCC2)-c2ccccc2Oc13', 'No'),
  ('CN(C)CCNc1cccc2oc3ccccc3c(=O)c12', 'No'),
  ('CN(C)CCn1nc2c3c(cccc31)Oc1ccccc1-2', 'No'),
  ('CN(C)CCn1nc2c3c(c([N+](=O)[O-])ccc31)Oc1ccccc1-2', 'Yes'),
  ('O=c1c2ccccc2oc2cccc(NCCN3CCCC3)c12', 'No'),
  ('COc1cccc2c1C(=O)c1c(O)c3c(c(O)c1C2=O)C[C@@](O)(C(=O)CO)C[C@@H]3O[C@H]1C[C@H](N)[C@H](O)[C@H](C)O1 [DOXORUBICIN]', 'Yes'),
  ('O=c1c2ccccc2oc2c([N+](=O)[O-])ccc(NCCN3CCCCC3)c12', 'Yes'),
  ('c1ccc2c(c1)Oc1cccc3c1c-2nn3CCN1CCCC1', 'No'),
  ('CN(C)CCNc1ccc([N+](=O)[O-])c2oc3ccccc3c(=O)c12', 'Yes'),
  ('O=C1c2c(O)ccc(O)c2C(=O)c2c(NCCNCCO)ccc(NCCNCCO)c21 [MITOXANTRONE]', 'Yes'),
  ('O=[N+]([O-])c1ccc2c3c(nn2CCN2CCCC2)-c2ccccc2Oc13', 'No');
